The reported measurements were obtained from ChEMBL document CHEMBL1154649.

test system: Hepatitis B virus; experiment: Antiviral activity against HBV assessed as inhibition of viral surface antigen secretion; format: functional, organism-based
PROPERTY: IC50

Examples with answers:
{"CPD_SMILES": "C[C@H](C[C@H](OC(=O)COc1cc(Cl)c(Cl)cc1Cl)[C@@H](OC(=O)COc1cc(Cl)c(Cl)cc1Cl)C(C)(C)OC(=O)COc1cc(Cl)c(Cl)cc1Cl)C1=C2C[C@H](OC(=O)COc3cc(Cl)c(Cl)cc3Cl)[C@H]3[C@@]4(C)CCC(=O)C(C)(C)[C@@H]4CC[C@]3(C)[C@@]2(C)CC1", "VALUE_OBSERVED": "> 1.2 mM"}
{"CPD_SMILES": "CCC(=O)O[C@@H](C[C@@H](C)C1=C2C[C@H](OC(=O)CC)[C@H]3[C@@]4(C)CCC(=O)C(C)(C)[C@@H]4CC[C@]3(C)[C@@]2(C)CC1)[C@@H](OC(=O)CC)C(C)(C)OC(C)=O", "VALUE_OBSERVED": "0.46 mM"}
{"CPD_SMILES": "CCCC(=O)O[C@@H](C[C@@H](C)C1=C2C[C@H](OC(=O)CCC)[C@H]3[C@@]4(C)CCC(=O)C(C)(C)[C@@H]4CC[C@]3(C)[C@@]2(C)CC1)[C@@H](OC(=O)CCC)C(C)(C)OC(=O)CCC", "VALUE_OBSERVED": "> 1.8 mM"}
{"CPD_SMILES": "CCCCCCCC(=O)O[C@@H](C[C@@H](C)C1=C2C[C@H](OC(=O)CCCCCCC)[C@H]3[C@@]4(C)CCC(=O)C(C)(C)[C@@H]4CC[C@]3(C)[C@@]2(C)CC1)[C@@H](OC(=O)CCCCCCC)C(C)(C)OC(=O)CCCCCCC", "VALUE_OBSERVED": "> 1.6 mM"}
{"CPD_SMILES": "COCC(=O)OC(C)(C)[C@H](OC(C)=O)[C@H](C[C@@H](C)C1=C2C[C@H](OC(C)=O)[C@H]3[C@@]4(C)CCC(=O)C(C)(C)[C@@H]4CC[C@]3(C)[C@@]2(C)CC1)OC(C)=O", "VALUE_OBSERVED": "0.0044 mM"}

Which IC50 is listed for "C[C@H](C[C@H](OC(=O)/C=C/c1ccccc1)[C@@H](OC(=O)/C=C/c1ccccc1)C(C)(C)OC(=O)/C=C/c1ccccc1)C1=C2C[C@H](OC(=O)/C=C/c3ccccc3)[C@H]3[C@@]4(C)CCC(=O)C(C)(C)[C@@H]4CC[C@]3(C)[C@@]2(C)CC1" ?
> 1.2 mM

Let us now turn to "CCC(=O)O[C@@H](C[C@@H](C)[C@]12CC[C@@]3(C)[C@@]1(C[C@H](OC(=O)CC)[C@H]1[C@@]4(C)CCC(=O)C(C)(C)[C@@H]4CC[C@@]13C)O2)[C@@H](OC(=O)CC)C(C)(C)OC(=O)CC"
> 2.2 mM
